Hey, just so you know, these numbers are from paper PMC10327353.

- assay_explanation: Phase 1 study: plasma pharmacokinetics
- Type: in vivo, human
- condition_description: human, plasma, oral; Day 1, 250 mg DZD1516; read-out: tmax, Median (Min, Max)
assay_endpoint: Tmax (h)
Entry rule: numbers only, all in h.

Tell me the measured Tmax of COc1cc(O[C@H]2CCN(C)CC2(F)F)c2c(Nc3ccc(Oc4ccn5ncnc5c4)c(C)c3)ncnc2c1 [DZD1516] , please.
2.85

###

- system_tested: Fms(h) (Homo sapiens)
- Sequence (P07333 20-972): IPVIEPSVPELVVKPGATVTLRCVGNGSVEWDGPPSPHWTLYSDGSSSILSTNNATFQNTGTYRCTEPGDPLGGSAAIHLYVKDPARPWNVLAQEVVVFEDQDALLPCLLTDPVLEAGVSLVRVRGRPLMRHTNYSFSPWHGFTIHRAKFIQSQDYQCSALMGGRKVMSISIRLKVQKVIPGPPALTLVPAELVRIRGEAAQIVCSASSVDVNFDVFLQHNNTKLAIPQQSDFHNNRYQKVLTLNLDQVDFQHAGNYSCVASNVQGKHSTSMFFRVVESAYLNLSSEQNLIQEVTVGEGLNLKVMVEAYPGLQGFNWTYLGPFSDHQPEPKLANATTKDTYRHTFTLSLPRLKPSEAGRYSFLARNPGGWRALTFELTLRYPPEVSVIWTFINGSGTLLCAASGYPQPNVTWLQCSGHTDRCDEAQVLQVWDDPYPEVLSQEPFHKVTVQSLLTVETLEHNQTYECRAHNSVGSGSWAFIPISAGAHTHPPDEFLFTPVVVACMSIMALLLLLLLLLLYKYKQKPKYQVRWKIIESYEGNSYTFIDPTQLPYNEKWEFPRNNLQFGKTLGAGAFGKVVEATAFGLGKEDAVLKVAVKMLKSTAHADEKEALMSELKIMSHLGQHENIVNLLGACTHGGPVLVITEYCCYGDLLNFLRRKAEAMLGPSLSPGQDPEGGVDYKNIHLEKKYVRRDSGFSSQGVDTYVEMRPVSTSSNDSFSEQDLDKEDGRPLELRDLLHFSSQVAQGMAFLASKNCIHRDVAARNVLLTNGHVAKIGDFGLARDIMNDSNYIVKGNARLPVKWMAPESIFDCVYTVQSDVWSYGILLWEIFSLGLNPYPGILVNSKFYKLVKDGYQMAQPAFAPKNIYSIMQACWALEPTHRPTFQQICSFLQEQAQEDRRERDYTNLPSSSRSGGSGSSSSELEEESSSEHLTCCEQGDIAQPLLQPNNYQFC
assay_endpoint: IC50 (nM)
Entry rule: numbers only, all in nM.

Tell me the measured IC50 of COc1cc(O[C@H]2CCN(C)CC2(F)F)c2c(Nc3ccc(Oc4ccn5ncnc5c4)c(C)c3)ncnc2c1 , please.
1070
